Please respond with reported apparent KD of MS2 coat protein for every item in the list.
tested on: MS2 coat protein; test: apparent KD of MS2 coat protein; designed switch direction (-1 OFF switch, 1 ON switch): -1; higher = weaker reporter binding; settings: Eterna round: R95; input ligand: none
All answers are understood in nM, so give the number only.

Which apparent KD of MS2 coat protein is listed for GAUUAUGCGAGCUUUAGGGACAUGAGGAUCACCCAUGUUCGUCUUAUUGGUCUGAGUACACUGACAUACCUAAAUCU [JMF 63] (puzzle: Sensor v3, turn-off variant 1) ?
12.8

Entry UUUAAUUUUUUUUUUUUACAAGCUUUUUGCUCGUCUUAUACAUGAGGAUCACCCAUGUGGAUGGGAGAUAAAUUAUC [JMF 19] (puzzle: Sensor v3, turn-off variant 2) : reported apparent KD of MS2 coat protein = ?
36.4

Report apparent KD of MS2 coat protein for GAUUAUGCGAGCUUUAGGGACAUGAGGAUCACCCAUGUUCGUCUUAUUGAUCUAGAUGCACUAACAUACCUAAAUCU [JMF 25] (puzzle: Sensor v3, turn-off variant 1) please.
20.1

Fill in the blank: the reported apparent KD of MS2 coat protein of AUGAGCAGACGGAGAUCCAACAUGAGGAUCACCCAUGUCUCAUAAGCUUUUUGCUCAUCUUAUUGUACCUUGGUGCU [Mat - Sensor v3 - turn-off var 1 - JL Mod - D19] (puzzle: Sensor v3, turn-off variant 1) is ____.
251

# lookup: apparent KD of MS2 coat protein of UUUAAUUUUUUUUUUUUACAAGCUUUUUGCUCGUCUUAUACAUGAGGAUCACCCAUGUAGAUGGAGGAUAAAUUAUC [JMF 32] (puzzle: Sensor v3, turn-off variant 2)
15.2

Query: apparent KD of MS2 coat protein; subject: AAUAACAGAGGAUAUACUAAAAUAUGAAUAAAAUAAAUAAAACAUGAGGAUCACCCAUGUAGAAGGCUGAAUAA [JMF's Not so obvious solution 7] (puzzle: Exclusion 2)
25

Fill blank: measured apparent KD of MS2 coat protein of the sequence CGUGACUCAGGAUAUUCAUAAUAUCACAUGAGGAUCACCCAUGUCCAGCGAAAGCUGGAGGGAGAAGGGAGUCACG [Fiskers Ex 5 - 37] (puzzle: Exclusion 5) is ____.
99.6

Requested read-out: apparent KD of MS2 coat protein. Entry: UAUUAUCAAGCAAGAUCCUACAUGAGGAUCACCCAUGUGCUCGUCUUAUAAGGUACUGUGACGAAAGUCACGGUACC [Sensor 3, v1 - 73] (puzzle: Sensor v3, turn-off variant 1)
153

// apparent KD of MS2 coat protein lookup, key: UAGUGGUUACGUUGGAGUUGUAUGAGCGGAGGCUCUGUGACAUGAGGAUCACCCAUGUAGCUUUUUGCUCGUCUUAA [JR_SV3TOV2_Sub039] (puzzle: Sensor v3, turn-off variant 2)
22.6

Would you kindly share the measured apparent KD of MS2 coat protein for GGUUGGCGAGGAUAUACAUGAGGAUCACCCAUGUGAGAGAAAAAAGUGAGGACGAAAAGUAGAAGGCGCUGACG [salish99_ex3_r3_032] (puzzle: Exclusion 3) ?
61.6

----------
test system: MS2 coat protein; experiment: apparent KD of MS2 coat protein, switch OFF state (with FMN for OFF switches, without FMN for ON switches); designed switch direction (-1 OFF switch, 1 ON switch): -1; higher = weaker reporter binding; conditions: FMN input: 0 or 200 uM; Eterna round: R93 (includes R88 designs)
Class rule met: apparent KD of MS2 coat protein at least 40 nM. Class rule not met: apparent KD of MS2 coat protein below 40 nM.

Tell me whether apparent KD of MS2 coat protein is at least 40 nM here: CCCUCACAUGAGGAUCACCCAUGUGAGGAUAUGCAUAAAAAAAAAAAAAAAAAAAAAUGCAGAAGGCACAUGAA [jn_irvington]
rule not met

Entry AGUAACCAAGGAUAUACAAAACCUGUGAUCGAAUGGAUUUUACAUGAGGAUCACCCAUGUAGAAGGUGGAAAGG [Xeedce] : is its apparent KD of MS2 coat protein no less than 40 nM?
rule not met

Exam item: decide whether the reported apparent KD of MS2 coat protein for CUCUUGUCAGGAUAUAGAAGAAAAGAAGAGAAAGAAAAGAACUAGAAGGGACAUGAGGAUCACCCAUGUAAGAA [EteRNA is fun!] is at least 40 nM.
rule met

Is it the case that AAAAAACAUGAGGAUCACCCAUGUGAGGAUAUCCUGAAUGAAAUAAAAUAUCUCGAAAGGAGAAGGCGCAAAAA [Ex 1 May 33] has apparent KD of MS2 coat protein reaching or exceeding 40 nM?
rule met

Has AAGAAGCUAGGAUAUACAUGAGGAUCACCCAUGUAAAAGAAAGAAAGGGAAAAGAAAAGUAGAAGGAGCAAGAA [Netjerikheperre-setpenamun Siamun-meryamun] a recorded apparent KD of MS2 coat protein greater than or equal to 40 nM?
rule not met

Textbook exercise: given the entry AAAAACGGAGGAUAUACAAAUUAAGGAAGAAAACACGAAAAACAUGAGGAUCACCCAUGUAGAAGGCCGGAAAA [Ex 2 #3] , state whether its apparent KD of MS2 coat protein is greater than or equal to 40 nM.
rule not met

Can AAGAAUGCAGGAUAUACAAAAUAAAAGAAAAGAAAGAAAGAACAUGAGGAUCACCCAUGUAGAAGGGCAAAGAA [Menwadjre Sihathor] be said to have apparent KD of MS2 coat protein at or above 40 nM?
rule not met

Exam item: decide whether the reported apparent KD of MS2 coat protein for GGAGGCGUAGGAUAUACAUGAGGAUCACCCAUGUGAGAGAAAAAAGUGAGAAAGAAAAGUAGAAGGACGUUUCG [salish99-ex3-127] is at least 40 nM.
rule met

Does the sequence AAAAAGUCAGGAUAUACAUGAGGAUCACCCAUGUGAAAGAACGAUUAACGACCAGCAAGUAGAAGGGACAAAAA [Ruby 80] have recorded apparent KD of MS2 coat protein that is 40 nM or more?
rule not met

Evaluate AAAUAGCAAGGAUAUACAUGAGGAUCACCCAUGUAAGGAUGGUAAGUAUUAGAAGAAAGUAGAAGGUGCAAAUA [Ex 3 Tesla 5] : apparent KD of MS2 coat protein at minimum 40 nM?
rule met

Threshold query (apparent KD of MS2 coat protein >= 40 nM) on AUCUUGUCAGGAUAUGACUACAUAAAAAAAAAAAAAUGUAGUCAGAAGGGACAUGAGGAUCACCCAUGUACUAA [hsl_exclusion4]
rule met
